Source listed as patent US20210261621A1.

test system: P. aeruginosa PAO1; set-up: unit not given beside the values; conditions: in combination with Clindamycin
Positions of bridges follow the written chain, without caps; N, C: chain ends. Non-standard residues stand in square brackets, D forms with d. Residues, ends and D or L forms follow the SMILES beside them. *: point of attachment. Acetyl(1-adamantyl) = O=C(CC12CC3CC(CC(C3)C1)C2)*; Benzoyl(4-Ph) = O=C(c1ccc(-c2ccccc2)cc1)*; Dab = NCC[C@H](N)C(=O)O
Assay Metric: MIC of adjuvant in combo

# input Query MIC of adjuvant in combo for CC(C)C[C@@H]1NC(=O)[C@@H](Cc2ccccc2)NC(=O)[C@H](CCN)NC(=O)[C@@H](NC(=O)[C@H](CCN)NC(=O)[C@@H](N)[C@@H](C)O)CCNC(=O)[C@H]([C@@H](C)O)NC(=O)[C@H](CCN)NC(=O)[C@H](CCN)NC1=O [PMBN, polymyxin B nonapeptide, reference compound] (H-T[Dab][Dab][Dab][dF]L[Dab][Dab]T; lactam 3-C (inferred))
# output (0.5)

# input Query MIC of adjuvant in combo for CC(C)C[C@@H]1NC(=O)[C@@H](Cc2ccccc2)NC(=O)[C@H](CCN)NC(=O)[C@@H](NC(=O)[C@H](CCN)NC(=O)[C@@H](NC(=O)[C@H](CCNC(=O)CC23CC4CC(CC(C4)C2)C3)NC(=O)CC23CC4CC(CC(C4)C2)C3)[C@@H](C)O)CCNC(=O)[C@H]([C@@H](C)O)NC(=O)[C@H](CCN)NC(=O)[C@H](CCN)NC1=O [Compound 4] ({Acetyl(1-adamantyl)}-[Dab](Acetyl(1-adamantyl))T[Dab][Dab][Dab][dF]L[Dab][Dab]T; lactam 4-C)
# output (4)

# input Query MIC of adjuvant in combo for CC(C)C[C@@H]1NC(=O)[C@@H](Cc2ccccc2)NC(=O)[C@H](CCN)NC(=O)[C@@H](NC(=O)[C@H](CCN)NC(=O)[C@@H](NC(=O)[C@H](CCNC(=O)c2ccc(-c3ccccc3)cc2)NC(=O)c2ccc(-c3ccccc3)cc2)[C@@H](C)O)CCNC(=O)[C@H]([C@@H](C)O)NC(=O)[C@H](CCN)NC(=O)[C@H](CCN)NC1=O [Compound 5] ({Benzoyl(4-Ph)}-[Dab](Benzoyl(4-Ph))T[Dab][Dab][Dab][dF]L[Dab][Dab]T; lactam 4-C)
# output (8)
